# assay: Viability (propidium iodide staining), CEM
# Assay type: cell-based
# measurement.parameters: human, CEM cells (lymphoid), 500 nM, 48 h
measured.property: viability at 48 h, 0.5 µM (%)

[[record]]
compound = "COc1cc(NC(=S)NC(=O)/C=C/c2ccco2)ccc1-c1cc2ccccc2oc1=O [Compound 01]"
readout_unit = "%"
readout_value = 10


###

# assay: Viability (propidium iodide staining), PC3
# Assay type: cell-based
# measurement.parameters: human, PC3 cells (prostate), 500 nM, 72 h
# Protocol: Propidium iodide (PI) cannot normally cross the cell membrane; it is thus excluded by viable cells but not from dying or dead cells, having a damaged membrane, where it intercalates into double-stranded nucleic acids and fluoresces when excited at 488 nm. The cells are pelleted by gentle centrifugation 1200 rpm/5 min/4° C., then the supernatant is discarded and replaced by 1 mL of fresh medium. […]
measured.property: viability at 72 h, 0.5 µM (%)

[[record]]
compound = "COc1cc(NC(=S)NC(=O)/C=C/c2ccco2)ccc1-c1cc2ccccc2oc1=O [Compound 01]"
readout_unit = "%"
readout_value = 90

